Species on record: Rattus norvegicus
Assay: Compound was tested for the vasorelaxation in rat aorta rings pre-contracted with noradrenaline (NA) 10 uM
Assay type: functional, organism-based
quantity: IC50 (µM)

1: COc1c2occc2c(OC)c2c(=O)cc(C)oc12
2: COc1c(O)ccc2c(CO)cc(=O)oc12
3: Cc1coc2cc3oc(=O)cc(CO)c3cc12
Sort entries by IC50 from minimum to maximum value. Field: ranking. Enter the labels in the order requested.
3, 1, 2
(3: 68.4 µM, 1: 309 µM, 2: 933 µM)

* * *

Organism: Rattus norvegicus
Assay: Compound was tested for the vasorelaxation in rat aorta rings pre-contracted with KCl 60 mM
Format: functional, organism-based
quantity: IC50 (µM)

Known results for compounds:
COc1c(O)ccc2c(CO)cc(=O)oc12    1010
COc1c2occ(C)c2cc2c(CO)cc(=O)oc12    42.6
COc1c2occc2c(OC)c2c(=O)cc(C)oc12    316

A: Cc1coc2cc3oc(=O)cc(CO)c3cc12
B: CC(=O)COc1c2occ(C)c2cc2c(CO)cc(=O)oc12
Please indicate which item has the smaller measured IC50: A versus B API: response body contains the label of the selected item.
A
(A: 54 µM, B: 93.3 µM)
